Source listed as paper PMC8618245.

biological target: the molecule itself; assay: cross-linking; glutaraldehyde, thioredoxin-fused BTB domains at 5 μM, 10 min at room temperature, 20 mM HEPES pH 7.7, 150 mM NaCl, 20 mM imidazole, 1 mM β-mercaptoethanol; SDS-PAGE, silver staining
PROPERTY_NAME: stoichiometry N
Returns: the value as a bare number; no unit string appended.

Reported stoichiometry N ( 6×His-Thioredoxin-fused CP190 1–126 V114A (domain or fragment, Drosophila melanogaster, UniProt Q24478 1-126, looked up, CP190, Drosophila melanogaster, residues 1–126 (BTB domain); source: E. coli BL21, co-expressed with the GST fusion, in lysate (pull-down); bacterial expression (cross-linking)) MGEVKSVKVDNWGVFFLQKLQNFFNKTDYCDLTLQFRDNSQLKVHRLVLSACTDYFNVLEQTCEIVDDALIMPNEFQADVVVPIVNFMYTGTLEFELKMYGKLLRTAKEMNMTALLKLLEAHRRTM ) = 2

Reported stoichiometry N ( 6×His-Thioredoxin-fused CP190 1–126 K117S (domain or fragment, Drosophila melanogaster, UniProt Q24478 1-126, looked up, CP190, Drosophila melanogaster, residues 1–126 (BTB domain); source: E. coli BL21, co-expressed with the GST fusion, in lysate (pull-down); bacterial expression (cross-linking)) MGEVKSVKVDNWGVFFLQKLQNFFNKTDYCDLTLQFRDNSQLKVHRLVLSACTDYFNVLEQTCEIVDDALIMPNEFQADVVVPIVNFMYTGTLEFELKMYGKLLRTAKEMNMTVLLSLLEAHRRTM ) = 2

Reported stoichiometry N ( 6×His-Thioredoxin-fused CP190 1–126 V114N (domain or fragment, Drosophila melanogaster, UniProt Q24478 1-126, looked up, CP190, Drosophila melanogaster, residues 1–126 (BTB domain); source: E. coli BL21, co-expressed with the GST fusion, in lysate (pull-down); bacterial expression (cross-linking)) MGEVKSVKVDNWGVFFLQKLQNFFNKTDYCDLTLQFRDNSQLKVHRLVLSACTDYFNVLEQTCEIVDDALIMPNEFQADVVVPIVNFMYTGTLEFELKMYGKLLRTAKEMNMTNLLKLLEAHRRTM ) = 2
